# Tested On: UniProtKB Q92918
# Sequence (Q92918 1-346 limits assumed): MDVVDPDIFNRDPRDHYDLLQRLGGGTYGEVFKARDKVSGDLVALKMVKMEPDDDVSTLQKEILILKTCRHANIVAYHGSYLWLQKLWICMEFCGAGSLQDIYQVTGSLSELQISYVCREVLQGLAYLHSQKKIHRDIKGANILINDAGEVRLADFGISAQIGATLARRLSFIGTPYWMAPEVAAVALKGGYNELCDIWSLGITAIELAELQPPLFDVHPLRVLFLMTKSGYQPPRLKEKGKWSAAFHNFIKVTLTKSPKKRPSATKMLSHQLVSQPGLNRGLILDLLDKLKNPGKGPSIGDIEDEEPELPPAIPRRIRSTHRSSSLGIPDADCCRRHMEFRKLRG
# Method Description: HPK1 kinase activity assay (ADP-Glo)
# Applied Conditions: HPK1 Kinase activity IC50 (nM), 1 nM HPK1, 10 μM ATP, 0.1 μg/μL MBP
Experimental Endpoint: IC50 (nM)

>  <Smiles Code>
CCN1Cc2cc(-c3cnc4[nH]cc(C)c4c3)cc([C@@H]3CCCN3)c2CC1=O

>  <Measurement Unit>
nM

>  <IC50>
0.97

$$$$
>  <Smiles Code>
Cc1c[nH]c2ncc(-c3cc4c(c([C@@H]5COCCN5)c3)CN(S(C)(=O)=O)CC4)cc12

>  <Measurement Unit>
nM

>  <IC50>
0.74

$$$$
>  <Smiles Code>
C=C1COCc2c(cc(-c3cnc4[nH]cc(C)c4c3)cc2[C@@H]2CCCN2)C1

>  <Measurement Unit>
nM

>  <IC50>
1.04

$$$$
>  <Smiles Code>
Cc1c[nH]c2ncc(-c3cc4c(c([C@@H]5CCCN5)c3)CCOC4)cc12

>  <Measurement Unit>
nM

>  <IC50>
1.7

$$$$
